As shown below, each of these compounds has a reported SGOT Increase - Index Value value.
Tested on: Hepatotoxicity
Test: FDA HLAED, serum glutamic oxaloacetic transaminase (SGOT) increase
Conditions: human
Write no unit; give the number alone.

CC(O)(CS(=O)(=O)c1ccc(F)cc1)C(=O)Nc1ccc(C#N)c(C(F)(F)F)c1 (centres undefined) [BICALUTAMIDE] ... 13.6
COc1cc2nc(N3CCN(C(=O)C4CCCO4)CC3)nc(N)c2cc1OC (centres undefined) [TERAZOSIN] ... 1.6
CC1=C(C(=O)O)N2C(=O)[C@@H](NC(=O)[C@H](N)c3ccc(O)cc3)[C@H]2SC1 [CEFADROXIL] ... 0

INPUT: Entry CCC1=C(C)CN(C(=O)NCCc2ccc(S(=O)(=O)NC(=O)N[C@H]3CC[C@H](C)CC3)cc2)C1=O [GLIMEPIRIDE] : reported SGOT Increase - Index Value = ?
OUTPUT: 1.2

INPUT: Entry CC(=O)N1CCN(c2ccc(OCC3COC(Cn4ccnc4)(c4ccc(Cl)cc4Cl)O3)cc2)CC1 (centres undefined) [KETOCONAZOLE] : reported SGOT Increase - Index Value = ?
OUTPUT: 14.7

INPUT: Entry O=C1c2c(O)ccc(O)c2C(=O)c2c(NCCNCCO)ccc(NCCNCCO)c21 [MITOXANTRONE] : reported SGOT Increase - Index Value = ?
OUTPUT: 13.5

INPUT: Entry CC(C)(C)NCC(O)COc1cccc2c1CC(O)C(O)C2 (centres undefined) [NADOLOL] : reported SGOT Increase - Index Value = ?
OUTPUT: 0.7

INPUT: Entry Cc1cc(C2CCCCC2)n(O)c(=O)c1 [CICLOPIROX] : reported SGOT Increase - Index Value = ?
OUTPUT: 0

INPUT: Entry CC(C)(C)NC[C@H](O)COc1ccccc1C1CCCC1 [PENBUTOLOL] : reported SGOT Increase - Index Value = ?
OUTPUT: 0

###

Test system: Hepatotoxicity
Assay: FDA HLAED, liver enzyme composite activity
Details: human
measured_attribute: Composite Activity - Score

Example cases with answers are listed next.
CN1C(C(=O)Nc2ccccn2)=C(O)c2ccccc2S1(=O)=O [PIROXICAM] ... Inactive
NCC(CC(=O)O)c1ccc(Cl)cc1 (stereo not given) [BACLOFEN] ... Active
CN(C)CCC=C1c2ccccc2COc2ccccc21 [DOXEPIN] ... Active
CC(C)NCC(O)COc1cccc2[nH]ccc12 (stereo not given) [PINDOLOL] ... Inactive

Next, consider the following molecule.
INPUT: Entry CCc1nn(CCCN2CCN(c3cccc(Cl)c3)CC2)c(=O)n1CCOc1ccccc1 [NEFAZODONE] : reported Composite Activity - Score = ?
OUTPUT: Inactive

###

System: Hepatotoxicity
Experiment: FDA HLAED, liver enzyme composite activity
Details: human
As shown below, each of these compounds has a reported Composite Activity - Marginal value.
Write no unit; give the number alone.

CC(C)(C)NC(=O)[C@@H]1CN(Cc2cccnc2)CCN1C[C@@H](O)C[C@@H](Cc1ccccc1)C(=O)N[C@H]1c2ccccc2C[C@H]1O.O ... 0

INPUT: Entry CC1=C(C(=O)O)N2C(=O)[C@@H](NC(=O)[C@H](N)c3ccc(O)cc3)[C@H]2SC1 [CEFADROXIL] : reported Composite Activity - Marginal = ?
OUTPUT: 0

INPUT: Entry CC(=O)OCC(=O)[C@@]1(O)[C@H](C)C[C@H]2[C@@H]3CCC4=CC(=O)C=C[C@]4(C)[C@@]3(F)[C@@H](O)C[C@@]21C [DEXAMETHASONE ACETATE] : reported Composite Activity - Marginal = ?
OUTPUT: 0

INPUT: Entry CCCc1c2oc(C(=O)O)cc(=O)c2cc2c(=O)cc(C(=O)O)n(CC)c12 [NEDOCROMIL] : reported Composite Activity - Marginal = ?
OUTPUT: 0

###

System: Hepatotoxicity
Experiment: FDA HLAED, lactate dehydrogenase (LDH) increase
Conditions: human
measured_attribute: LDH Increase - Number of Reports

CC(C)c1c(C(=O)Nc2ccccc2)c(-c2ccccc2)c(-c2ccc(F)cc2)n1CC[C@@H](O)C[C@@H](O)CC(=O)O [ATORVASTATIN] ... >= 4
COc1ccc(Cl)cc1C(=O)NCCc1ccc(S(=O)(=O)NC(=O)NC2CCCCC2)cc1 [GLYBURIDE] ... >= 4
CCC(=O)OCC(=O)[C@@]1(OC(=O)CC)[C@H](C)C[C@H]2[C@H]3[C@H]([C@@H](O)C[C@@]21C)[C@@]1(C)C=CC(=O)C=C1C[C@H]3Cl [ALCLOMETASONE DIPROPIONATE] ... < 4
Nc1nc(F)nc2c1ncn2[C@@H]1O[C@H](CO)[C@@H](O)[C@@H]1O [FLUDARABINE] ... >= 4

INPUT: Entry COc1ccccc1OCCNCC(O)COc1cccc2[nH]c3ccccc3c12 (stereo unspecified) [CARVEDILOL] : reported LDH Increase - Number of Reports = ?
OUTPUT: < 4

INPUT: Entry CC(=O)N1CCN(c2ccc(OCC3COC(Cn4ccnc4)(c4ccc(Cl)cc4Cl)O3)cc2)CC1 (stereo unspecified) [KETOCONAZOLE] : reported LDH Increase - Number of Reports = ?
OUTPUT: < 4

INPUT: Entry O=C(NCC1CCCCN1)c1cc(OCC(F)(F)F)ccc1OCC(F)(F)F (stereo unspecified) [FLECAINIDE] : reported LDH Increase - Number of Reports = ?
OUTPUT: >= 4

INPUT: Entry Nc1ccc(O)c(C(=O)O)c1 [MESALAMINE] : reported LDH Increase - Number of Reports = ?
OUTPUT: >= 4

INPUT: Entry Oc1ccc2c3c1O[C@H]1[C@@H](O)CC[C@@]4(O)[C@@H](C2)N(CC2CCC2)CC[C@]314 [NALBUPHINE] : reported LDH Increase - Number of Reports = ?
OUTPUT: < 4

INPUT: Entry O=C1NC(c2ccccc2)(c2ccccc2)C(=O)N1COP(=O)(O)O [FOSPHENYTOIN] : reported LDH Increase - Number of Reports = ?
OUTPUT: < 4

INPUT: Entry Nc1nc2c(ncn2CCC(CO)CO)c(=O)[nH]1 [PENCICLOVIR] : reported LDH Increase - Number of Reports = ?
OUTPUT: < 4

INPUT: Entry COc1cc(C(=O)NS(=O)(=O)c2ccccc2C)ccc1Cc1cn(C)c2ccc(NC(=O)OC3CCCC3)cc12 [ZAFIRLUKAST] : reported LDH Increase - Number of Reports = ?
OUTPUT: >= 4

INPUT: Entry CC(c1cc2ccccc2s1)N(O)C(N)=O (stereo unspecified) [ZILEUTON] : reported LDH Increase - Number of Reports = ?
OUTPUT: < 4

###

Tested on: Hepatotoxicity
Experiment: FDA HLAED, alkaline phosphatase increase
Conditions: human
measured_attribute: Alkaline Phosphatase Increase - Number of Reports

CC(=O)N(CC(O)CO)c1c(I)c(C(=O)NCC(O)CO)c(I)c(C(=O)NCC(O)CO)c1I (stereo not drawn) [IOHEXOL] ... < 4
CC(O)(P(=O)(O)O)P(=O)(O)O ... >= 4
CN(C)CCCN1c2ccccc2CCc2ccc(Cl)cc21 ... < 4
COc1ccc([C@@H]2Sc3ccccc3N(CCN(C)C)C(=O)[C@@H]2OC(C)=O)cc1 ... < 4
C[C@]12CC[C@@H]3c4ccc(OC(=O)c5ccccc5)cc4CC[C@H]3[C@@H]1CC[C@@H]2O [ESTRADIOL BENZOATE] ... >= 4

INPUT: Entry "C=C1/C(=C\C=C2/CCC[C@]3(C)[C@@H]([C@H](C)/C=C/[C@@H](O)C4CC4)CC[C@@H]23)C[C@@H](O)C[C@@H]1O" : reported Alkaline Phosphatase Increase - Number of Reports = ?
OUTPUT: < 4

INPUT: Entry "c1ccc([C@H]2CN3CCSC3=N2)cc1" : reported Alkaline Phosphatase Increase - Number of Reports = ?
OUTPUT: >= 4

INPUT: Entry "CCc1nn(CCCN2CCN(c3cccc(Cl)c3)CC2)c(=O)n1CCOc1ccccc1" : reported Alkaline Phosphatase Increase - Number of Reports = ?
OUTPUT: >= 4

INPUT: Entry "CN(C)C(=N)N=C(N)N" : reported Alkaline Phosphatase Increase - Number of Reports = ?
OUTPUT: < 4

INPUT: Entry COc1cc(CC2c3c(cc(OC)c(OC)c3OC)CC[N+]2(C)CCCOC(=O)CCC(=O)OCCC[N+]2(C)CCc3cc(OC)c(OC)c(OC)c3C2Cc2cc(OC)c(OC)c(OC)c2)cc(OC)c1OC.[Cl-].[Cl-] (stereo not drawn) [DOXACURIUM CHLORIDE] : reported Alkaline Phosphatase Increase - Number of Reports = ?
OUTPUT: < 4

###

As shown below, each of these compounds has a reported SGOT Increase - Index Value value.
Tested on: Hepatotoxicity
Experiment: FDA HLAED, serum glutamic oxaloacetic transaminase (SGOT) increase
Conditions: human
Write no unit; give the number alone.

INPUT: Entry Cc1cn([C@H]2C[C@H](N=[N+]=[N-])[C@@H](CO)O2)c(=O)[nH]c1=O [ZIDOVUDINE] : reported SGOT Increase - Index Value = ?
OUTPUT: 12.7

INPUT: Entry O=c1[nH]cnc2c1ncn2[C@H]1CC[C@@H](CO)O1 [DIDANOSINE] : reported SGOT Increase - Index Value = ?
OUTPUT: 13.7

INPUT: Entry C/C(=C\C(=O)OCCCCCCCCC(=O)O)C[C@@H]1OC[C@H](C[C@@H]2O[C@H]2[C@@H](C)[C@H](C)O)[C@@H](O)[C@H]1O [MUPIROCIN] : reported SGOT Increase - Index Value = ?
OUTPUT: 0

INPUT: Entry Clc1ccc(CCC(Cn2ccnc2)Sc2c(Cl)cccc2Cl)cc1 (stereo not drawn) [BUTOCONAZOLE] : reported SGOT Increase - Index Value = ?
OUTPUT: 0

INPUT: Entry C[C@H](CCC(=O)O)[C@H]1CC[C@H]2[C@@H]3[C@@H](O)C[C@@H]4C[C@H](O)CC[C@]4(C)[C@H]3CC[C@]12C [URSODIOL] : reported SGOT Increase - Index Value = ?
OUTPUT: 9.7

INPUT: Entry COc1ccc2c(c1)c(CC(=O)O)c(C)n2C(=O)c1ccc(Cl)cc1 [INDOMETHACIN] : reported SGOT Increase - Index Value = ?
OUTPUT: 3.8

INPUT: Entry O=C(NCC(O)CO)c1c(I)c(C(=O)NCC(O)CO)c(I)c(N(CCO)C(=O)CO)c1I (stereo not drawn) [IOVERSOL] : reported SGOT Increase - Index Value = ?
OUTPUT: 0

INPUT: Entry O=C(O)c1cn(C2CC2)c2cc(N3CCNCC3)c(F)cc2c1=O [CIPROFLOXACIN] : reported SGOT Increase - Index Value = ?
OUTPUT: 3.1

Origin of the recorded values: ChEMBL document CHEMBL1697781
